Biological target: UniProt P47900
Assay: Binding Assay B - Scintillation Proximity Assay (SPA) for P2Y1 binding, [33P] 2MeS-ADP
Conditions: SPA, 0.3 nM [33P] 2MeS-ADP, Cheng-Prusoff; read-out: P2Y1 Ki (nM) using binding assay B
Procedure: Binding Assay B—Scintillation Proximity Assay (SPA) for P2Y1 Binding A SPA membrane binding assay was used to identify inhibitors of [^33P] […] Reactions were allowed to proceed to completion at room temperature for 1 hour followed by centrifugation of the plate for 5 min. About 40 μL of the aqueous solution was aspirated. Plates were sealed and the [^33P]
Note to self: Ki under 10 nM means YES, ties and anything higher get NO.

1) CC1(C)CN(c2ccccc2NC(=O)Nc2ccc(OC(F)(F)F)cc2)c2c(O)cc(F)c(-c3ccc(C(F)(F)F)nc3)c21    YES
2) CC1(C)CN(c2ccccc2NC(=O)Nc2ccc(OC(F)(F)F)cc2)c2c(O)ccc(-c3ccnc(F)c3)c21    YES
3) CCC1(CC)CN(c2ccccc2NC(=O)Nc2ccc(C(C)(C)C)cc2)c2c(O)ccc(F)c21    YES
4) CC1(C)CN(c2ccccc2NC(=O)Nc2nc3ccc(Cl)cc3s2)c2c(O)cc(F)c(-c3cc(C(F)(F)F)no3)c21    NO
5) CC1(C)CN(c2ccccc2NC(=O)Nc2ccc(OC(F)(F)F)cc2)c2c(O)ccc(C3=NC(C(C)(C)C)CO3)c21 (stereo not shown)    YES
6) CC1(C)CN(c2ccccc2NC(=O)Nc2ccc(OC(F)(F)F)cc2)c2c(O)ccc(-c3cncc(Cl)c3)c21    NO
7) CC(C)(C)c1ccc(-c2c(F)cc(O)c3c2C(C)(C)CN3c2ccccc2NC(=O)Nc2csc(Cl)n2)cc1    NO

###

target: cloned human P2Y1 receptors (Homo sapiens (Human)); assay: Binding Assay B - Scintillation Proximity Assay (SPA) for P2Y1 binding, [33P] 2MeS-ADP; details: SPA, 0.3 nM [33P] 2MeS-ADP, Cheng-Prusoff; read-out: P2Y1 Ki (nM) using binding assay B
Sequence (P47900 whole entry): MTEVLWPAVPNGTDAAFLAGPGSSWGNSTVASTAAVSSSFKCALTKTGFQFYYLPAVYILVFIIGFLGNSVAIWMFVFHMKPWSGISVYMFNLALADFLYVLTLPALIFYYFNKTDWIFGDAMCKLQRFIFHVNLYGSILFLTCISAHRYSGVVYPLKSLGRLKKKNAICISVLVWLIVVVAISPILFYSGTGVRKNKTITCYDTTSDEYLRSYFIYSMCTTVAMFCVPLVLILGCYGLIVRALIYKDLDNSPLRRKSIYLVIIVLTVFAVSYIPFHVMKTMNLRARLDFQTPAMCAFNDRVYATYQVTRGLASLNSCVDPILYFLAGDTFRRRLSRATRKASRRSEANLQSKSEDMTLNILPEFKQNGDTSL
result type: Ki (nM)

1) CC1(C)CN(c2ccccc2NC(=O)Nc2ccc(OC(F)(F)F)cc2)c2c(O)cc(F)c(-c3cccc(Cl)c3)c21    19.5
2) CSc1ncc(-c2c(F)cc(O)c3c2C(C)(C)CN3c2ccccc2NC(=O)Nc2ccc(OC(F)(F)F)cc2)cn1    7.2
3) CC1(C)CN(c2c(F)cccc2NC(=O)Nc2ccc(F)cc2F)c2c(O)ccc(C(F)(F)F)c21    14.6
4) CC(C)(C)CN1CCc2nc(NC(=O)Nc3ccccc3N3CC(C)(C)c4c(C(F)(F)F)ccc(O)c43)sc2C1    8
5) CC1(C)CN(c2ccccc2NC(=O)Nc2ccc(OC(F)(F)F)cc2)c2c(O)ccc(Br)c21    13.8
6) CC1(C)CN(c2ccccc2NC(=O)Nc2ccc(OC(F)(F)F)cc2)c2c(O)ccc(-c3nc4cc(F)c(F)cc4o3)c21    28.1
7) CC(C)(C)c1ccc(-c2c(F)cc(O)c3c2C(C)(C)CN3c2ccccc2NC(=O)Nc2csc(C(F)(F)F)n2)cc1    20.3
8) CCOC(=O)C1(C)CN(c2ccccc2NC(=O)Nc2csc(Cl)n2)c2c(O)ccc(Cl)c21 (stereo not shown)    7.1
9) CC1(C)CN(c2ccccc2NC(=O)Nc2nc3ccc(Cl)nc3s2)c2c(O)ccc(-c3ccc(F)cc3)c21    13
10) CC1(C)CN(c2ccccc2NC(=O)Nc2nc3ccc(F)cc3s2)c2c(O)cc(F)c(-c3nc4cc(F)ccc4s3)c21    25.4
11) CC1(C)CN(c2ccccc2NC(=O)Nc2nc3ccc(F)nc3s2)c2c(O)ccc(-c3nc4ccc(Cl)cc4o3)c21    9.7
12) COc1ccc2nc(-c3ccc(O)c4c3C(C)(C)CN4c3ccccc3NC(=O)Nc3ccc(OC(F)(F)F)cc3)oc2c1    39.5
13) Cc1nc(-c2c(F)cc(O)c3c2C(C)(C)CN3c2ccccc2NC(=O)Nc2ccc(OC(F)(F)F)cc2)co1    7.4
14) CC(C)(C)c1nc(-c2c(F)cc(O)c3c2C(C)(C)CN3c2ccccc2NC(=O)Nc2ccc(OC(F)(F)F)cc2)co1    46.3
15) CC1(C)CN(c2ccccc2NC(=O)Nc2ccc(OC(F)(F)F)cc2)c2c(O)cc(F)c(-c3ccc(C(F)(F)F)cn3)c21    13
16) CC1(C)CN(c2ccccc2NC(=O)Nc2ccc(OC(F)(F)F)cc2)c2c(O)ccc(-c3nc4ccccc4s3)c21    14.7
17) CC(C)n1nc(C(F)(F)F)cc1-c1c(F)cc(O)c2c1C(C)(C)CN2c1ccccc1NC(=O)Nc1nc2ccc(Cl)cc2s1    18.1
18) CCC1(CC)CN(c2ccccc2NC(=O)Nc2ccc(C3CCN(CC(C)(C)C)CC3)cc2)c2c1ccc(F)c2O    8.7
19) CN(C)Cc1cccc(-c2c(F)cc(O)c3c2C(C)(C)CN3c2ccccc2NC(=O)Nc2ccc(OC(F)(F)F)cc2)c1    12.2
20) Cc1nc(NC(=O)Nc2ccccc2N2CC(C)(C)c3c(-c4ccc(F)cc4)ccc(O)c32)cs1    5.8
21) Cn1c(-c2ccc(O)c3c2C(C)(C)CN3c2ccccc2NC(=O)Nc2ccc(OC(F)(F)F)cc2)nc2ccccc21    39.7
22) CC1(C)CN(c2ccccc2NC(=O)Nc2ccc(OC(F)(F)F)cc2)c2c(O)cc(F)c(-c3ccc(C#N)cc3)c21    7.4
23) CC1(C)CN(c2ccccc2NC(=O)Nc2csc(Cl)n2)c2c(O)cc(F)c(-c3ccc(C(F)(F)F)cc3)c21    11.3
24) CCSc1nsc(NC(=O)Nc2ccccc2N2CC(CC)(CC)c3c(F)ccc(O)c32)n1    7.6
25) CC1(C)CN(c2cc(F)ccc2NC(=O)Nc2nc3ccc(F)cc3s2)c2c(O)ccc(C(F)(F)F)c21    13
26) CC1(C)CN(c2ccccc2NC(=O)Nc2ccc(OC(F)(F)F)cc2)c2c(O)cc(F)c(-c3ccc(Cl)cn3)c21    6.4
27) Cn1nc(C(F)(F)F)cc1-c1c(F)cc(O)c2c1C(C)(C)CN2c1ccccc1NC(=O)Nc1ccc(OC(F)(F)F)cc1    11.3
28) CC1(C)CN(c2ccccc2NC(=O)Nc2ccc(OC(F)(F)F)cc2)c2c(O)cc(F)c(-c3ccc(C(F)(F)F)cc3)c21 [Example 222]    35
